Where do the numbers come from? From patent US20090124624A1.

# target.of.assay: MCH1 receptor (Mus musculus, UniProt Q8JZL2)
# Sequence (Q8JZL2 whole entry): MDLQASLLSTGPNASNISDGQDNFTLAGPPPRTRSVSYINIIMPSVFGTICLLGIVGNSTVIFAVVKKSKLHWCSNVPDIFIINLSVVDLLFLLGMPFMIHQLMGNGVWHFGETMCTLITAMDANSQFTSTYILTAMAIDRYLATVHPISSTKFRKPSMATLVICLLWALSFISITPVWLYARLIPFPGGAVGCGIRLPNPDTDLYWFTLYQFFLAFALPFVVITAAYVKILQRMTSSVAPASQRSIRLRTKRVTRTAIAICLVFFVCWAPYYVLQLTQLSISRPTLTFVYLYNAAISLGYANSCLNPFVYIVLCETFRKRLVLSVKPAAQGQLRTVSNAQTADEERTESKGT
Structures can show the parent of a compound that is named as a salt.
outcome.measure: pIC50
pIC50 here: minus log base 10 of the concentration, concentration in moles per litre.

Req: Looking for the measured pIC50 of COc1ccc(-c2nnc(NC3CCN(Cc4ccc(OCCCN(C)C)cc4)CC3)c3cc(OC)ccc23)cc1 [Example 3, trihydrochloride] , can you help?
Resp: 7.42

Req: Check COc1ccc2c(C3CCN(Cc4ccccc4)CC3)nnc(NC3CCN(Cc4ccc5c(c4)OCO5)CC3)c2c1 [Example 1, Trihydrochloride] too.
Resp: 9.70
